Values compiled from ChEMBL document CHEMBL1201862.

tested on: RXF 631; assay: NCI tumour cell line growth inhibition, 48 h
Active and inactive are the calls of the source. No stated cut-off is given here; in the data, active = GI50 up to about 1.1 µM and inactive = higher.
# GI50 listing for each entry below

>  <Molecule>
Cc1[nH]c2ccccc2c1C1Cc2ccccc2N1C(=O)/C(Cl)=C/c1ccccc1 (stereo not given)

>  <GI50>
> 100 µM (inactive)

$$$$
>  <Molecule>
CC1(C)CCc2cc3c(-c4ccccc4)cc(=O)oc3cc2O1

>  <GI50>
> 100 µM (inactive)

$$$$
>  <Molecule>
Cc1ccc(Nc2nc(C)c(C(/C=C/c3ccc4c(c3)OCO4)=N/Nc3ccc([N+](=O)[O-])cc3[N+](=O)[O-])s2)c([N+](=O)[O-])c1

>  <GI50>
42.5 µM (inactive)

$$$$
>  <Molecule>
COc1cc2c(cc1O)C(C)Cc1cc3c(cc1N(C)CC2)OCO3 (stereo not given)

>  <GI50>
18.7 µM (inactive)

$$$$
>  <Molecule>
CNS(=O)(=O)NNS(=O)(=O)c1ccc(F)cc1

>  <GI50>
> 100 µM (inactive)

$$$$
